measured-target: UniProtKB Q8I9T9
Sequence (Q8I9T9 21-176): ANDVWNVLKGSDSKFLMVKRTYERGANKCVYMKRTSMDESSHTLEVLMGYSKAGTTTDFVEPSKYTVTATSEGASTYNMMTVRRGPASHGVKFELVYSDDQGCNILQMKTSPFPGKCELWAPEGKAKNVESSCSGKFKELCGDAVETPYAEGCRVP
protocol-summary: isothermal titration calorimetry
Format: binding
measurement-kind: Kd (nM)

{"compound": "CCCCC/C=C\\C/C=C\\C/C=C\\C/C=C\\CCCC(=O)O [Arachidonic acid]", "limit-operator": "=", "result": 155}
{"compound": "CCCCC/C=C\\C\\C=C/C=C/C=C/[C@@H](SC[C@H](N)C(=O)O)[C@@H](O)CCCC(=O)O [LTE4]", "limit-operator": "=", "result": 10.8}
{"compound": "CCCCC/C=C\\C\\C=C/C=C/C=C/[C@@H](SC[C@H](N)C(=O)NCC(=O)O)[C@@H](O)CCCC(=O)O [LTD4]", "limit-operator": "≤", "result": 2}
{"compound": "CCCCC/C=C\\C[C@@H](O)/C=C/C=C/C=C\\[C@@H](O)CCCC(=O)O [LTB4]", "limit-operator": "=", "result": 1000}
{"compound": "CCCCC/C=C\\C\\C=C/C=C/C=C/[C@@H](SC[C@H](NC(=O)CC[C@H](N)C(=O)O)C(=O)NCC(=O)O)[C@@H](O)CCCC(=O)O [LTC4]", "limit-operator": "≤", "result": 2}

----------
measured-target: AM-33 (Argas monolakensis, UniProt Q09JW0)
Sequence (Q09JW0 19-179): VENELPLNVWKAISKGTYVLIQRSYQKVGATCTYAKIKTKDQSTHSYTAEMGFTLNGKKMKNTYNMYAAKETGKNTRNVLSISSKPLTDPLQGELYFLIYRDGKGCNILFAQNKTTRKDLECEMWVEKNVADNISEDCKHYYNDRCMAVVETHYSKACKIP
Reported values of Kd for individual entries
measurement-kind: Kd (nM)

{"smiles-entry": "CCCCC/C=C\\C\\C=C/C=C/C=C/[C@@H](SC[C@H](NC(=O)CC[C@H](N)C(=O)O)C(=O)NCC(=O)O)[C@@H](O)CCCC(=O)O", "measured-target": "AM-33 (Argas monolakensis, UniProt Q09JW0)", "measurement-kind": "Kd", "limit-operator": "=", "result": 2.2}
{"smiles-entry": "CCCCC/C=C\\C[C@@H](O)/C=C/C=C/C=C\\[C@@H](O)CCCC(=O)O", "measured-target": "AM-33 (Argas monolakensis, UniProt Q09JW0)", "measurement-kind": "Kd", "limit-operator": "=", "result": 587}
{"smiles-entry": "CCCCC/C=C\\C\\C=C/C=C/C=C/[C@@H](SC[C@H](N)C(=O)O)[C@@H](O)CCCC(=O)O", "measured-target": "AM-33 (Argas monolakensis, UniProt Q09JW0)", "measurement-kind": "Kd", "limit-operator": "=", "result": 68}
{"smiles-entry": "CCCCC/C=C\\C\\C=C/C=C/C=C/[C@@H](SC[C@H](N)C(=O)NCC(=O)O)[C@@H](O)CCCC(=O)O", "measured-target": "AM-33 (Argas monolakensis, UniProt Q09JW0)", "measurement-kind": "Kd", "limit-operator": "≤", "result": 2}
{"smiles-entry": "CCCCC/C=C\\C/C=C\\C/C=C\\C/C=C\\CCCC(=O)O", "measured-target": "AM-33 (Argas monolakensis, UniProt Q09JW0)", "measurement-kind": "Kd", "limit-operator": "=", "result": 613}
